Test Parameters: buffer; pH 7.4; 200.0 µM
Metric Name: solubility kinetic

Examples with their reported solubility kinetic follow.
O=C(O)CC(C(=O)Nc1ccc(F)cc1)C1CCCO1 (centres undefined)
> 42.2 µg/mL
OCCCNC(=S)Nc1ccc(Br)cc1Cl
> 48.5 µg/mL
Br.N#Cc1ccc(CSC2=NCCN2)cc1
> 44.7 µg/mL

Output solubility kinetic of Cc1cccc(NC(=O)CSCC(=O)NCc2ccco2)c1 > 47.8 µg/mL

---

Would you mind telling me the reported solubility kinetic of each entry?
Test Parameters: buffer; pH 7.4; 200.0 µM

Here are 5 compounds together with their reported answers.
O=C(CNCc1ccco1)Nc1cc(S(=O)(=O)N2CCOCC2)ccc1N1CCOCC1
> 69.7 µg/mL
C/C(=N/NC(=O)CNC(=O)c1ccncc1)c1ccco1
> 42.9 µg/mL
COc1ccc(/C=N/OC(=O)c2ccc(Cl)cc2)c(Cl)c1OC
< 0.8 µg/mL
COc1cccc(Nc2nc(N)nc(CCl)n2)c1
> 39.9 µg/mL
CC(NC(=O)c1ccc(C#N)cc1)C1CC2CCC1C2 (stereo unspecified)
> 40.3 µg/mL

Shift focus to the following entry.
For COc1ccc(S(=O)(=O)NCCCn2ccnc2)cc1Cl , write its solubility kinetic. > 49.5 µg/mL

---

Test Parameters: buffer; pH 7.4; 200.0 µM
Metric Name: solubility kinetic (µg/mL)
Numbers only, in µg/mL.

Reference set (3 entries):
CN(C)CCNc1ncnc2sc(-c3ccccc3)cc12
39.7
O=C(NCCCN1CCOCC1)c1cc(Cl)ccc1Cl
41
O=C(OCC(=O)N1CCCCC1)c1ccc(OC(F)(F)F)cc1
16.2

Hi, could you look up solubility kinetic for each item in my list?
1. c1ccc(SSc2ccccn2)nc1
2. COc1ccc(S(=O)(=O)n2cccc2)cc1OC
3. O=C(Nc1ccccc1)Nc1ccccc1C(=O)NCC1CC1
4. Cc1cccc(C(=O)Nc2cc(NC(=O)c3cccs3)ccc2C)c1
5. Nc1ccc(Oc2ccccc2-c2ccccc2)cc1

25.5
11.8
5.1
2
10.4

Look at each molecule and report its solubility kinetic.
1. CC(C)N1CCN(C2CSCCSC2)CC1CCO (stereo not given)
2. CCN1C(=O)/C(=C\N(C)C)S/C1=N\S(=O)(=O)c1ccccc1
3. O=C(NCCCn1ccnc1)c1ccc(Br)s1

1. 42.7
2. 49.3
3. 46.9

Give measured solubility kinetic for every item shown.
1. Cc1ccc(C(=O)OCC(=O)NC(=O)Cc2ccccc2)c(O)c1
2. O=C1CN(C(=O)COc2c(F)c(F)cc(F)c2F)c2ccccc2N1

1: 12; 2: 44.4

---

Test Parameters: buffer; pH 7.4; 200.0 µM
Metric Name: solubility kinetic

O=C1NC2(CCCCCC2)C(=O)N1Cc1ccc(Br)cc1
5.2 µg/mL
COCc1cc(OC(=O)N(C)C)nc(-c2ccc(C)c(Cl)c2)n1
0.7 µg/mL
O=C(/C=C/c1cccnc1)c1cccc(O)c1
29.9 µg/mL
FC(F)(F)c1ccc2c(c1)NCC1CCCN21 (stereo not drawn)
13 µg/mL
COc1ccc(NC(=S)N(C)CC2COc3ccccc3O2)cc1 (stereo not drawn)
2.6 µg/mL

Quick batch: solubility kinetic for everything below.
1. O=S(=O)(c1cc(Cl)ccc1Cl)N1CCN2CCCC2C1 (stereo not drawn)
2. CN1CCN(CCCNC(=S)Nc2ccc(F)c(Cl)c2)CC1
3. Cc1cccc(Nc2nc(-c3ccc(F)c(C)c3)cs2)n1

47.5 µg/mL
43 µg/mL
< 0.2 µg/mL

---

Test Parameters: buffer; pH 7.4; 200.0 µM
Mark Not met for solubility kinetic values under 10 µg/mL, and Met for everything at or above.

These recorded examples may help you get a feel for the data.
COc1ccccc1NC(=S)N(Cc1ccccc1)Cc1cccnc1
Met
COC(=O)c1ccc(/C=C2\Oc3ccccc3NC2=O)cc1
Not met
O=C(CN1C(=O)c2ccccc2C1=O)Nc1ccc(Cl)cn1
Not met

Hi team, for Cc1ccc(S(=O)(=O)N2CCN(c3ncnc4sccc34)CC2)cc1 , is the recorded solubility kinetic at or above 10 µg/mL? Met

Is solubility kinetic at least 10 µg/mL? Consider Cc1ccc[n+](CC(=O)Nc2ccc([N+](=O)[O-])cc2)c1.[Cl-] Met

API: above_or_equal(metric=solubility kinetic, cutoff=10 µg/mL) for item CC(OC(=O)c1ccc(Br)o1)C(=O)NCC1CCCCC1 (configuration not stated) Met

Determine whether this compound has solubility kinetic no lower than 10 µg/mL: NC(=O)C1CC12c1ccccc1-c1ccccc12 (configuration not stated) Met

Decide: solubility kinetic of O=C(NCC(=O)N1CCN(Cc2ccccc2)CC1)c1cc(Cl)cc([N+](=O)[O-])c1 >= 10 µg/mL? Met

Decide: is the reported value of solubility kinetic for Cc1cccc(Nc2nnc(SCC(=O)NCC3CCCO3)s2)c1 (configuration not stated) equal to or greater than 10 µg/mL? Met

Evaluate CCOC(=O)C1CCCCN1Cc1ccc(-c2ccccc2)cc1 (configuration not stated) : solubility kinetic at minimum 10 µg/mL? Not met

Please tell me: is the compound CC1(C)CC(=O)c2cnc(N3CCc4ccccc43)nc2C1 at or over 10 µg/mL in terms of solubility kinetic? Not met

Given the entry CCCn1c(=S)[nH]c2sc3c(c2c1=O)CCCC3 , answer whether its solubility kinetic meets or surpasses 10 µg/mL. Not met

---

Test Parameters: buffer; pH 7.4; 200.0 µM
Please go through the items and note down their solubility kinetic.

Consider the worked cases shown below.
O=C(COc1ccccc1)Nc1ccncc1
> 34.2 µg/mL
CNC(=O)Nc1cccc2cccnc12
> 30.2 µg/mL

Okay, next one:
Determine from records and report solubility kinetic for CN(Cc1ccccc1Cl)C(=O)CNC(=O)C12CC3CC(CC(C3)C1)C2 > 56.2 µg/mL

---

Test Parameters: buffer; pH 7.4; 200.0 µM
Exercise: state measured solubility kinetic for each of the compounds provided.

O=C(CCC(=O)c1ccc(Cl)s1)Nc1ncccc1O
> 46.6 µg/mL
CN(C(=O)CSc1nncn1-c1ccccc1)c1ccccc1
> 48.7 µg/mL
CC1CCCCC1NC(=O)Cn1cnc2sccc2c1=O (stereo not given)
> 45.8 µg/mL
Cc1cccc(-n2c(=S)[nH]c3ccccc3c2=O)n1
> 40.4 µg/mL

Kindly review the next compound as well.
Look up and report measured solubility kinetic for this entry: CC1Oc2ccccc2N(CC(=O)N2CCCC2)C1=O (stereo not given) > 41.1 µg/mL

---

Test Parameters: buffer; pH 7.4; 200.0 µM
Please provide measured solubility kinetic for the entries that follow.

In the examples that follow, each entry is paired with its recorded solubility kinetic.
CNC(=S)N1CCC(c2nc3ccccc3s2)CC1
> 43.7 µg/mL
CN1CCN(Cc2cccc3ncccc23)CC1CCO (stereo not given)
> 42.8 µg/mL
O=C1CN(C(=O)c2ccccc2Cl)c2ccccc2N1
> 43 µg/mL
Cc1nn(C)c(Oc2ccccc2)c1CCNC(=O)C(C)(C)C
> 47.3 µg/mL
O=C(C1=C(O)C(=O)N(Cc2cccnc2)C1c1cccc(Oc2ccccc2)c1)c1ccco1 (stereo not given)
> 67.9 µg/mL
CCN(CC)S(=O)(=O)c1cccc(C(=O)NC(C(=O)NCCc2ccccn2)C(C)C)c1 (stereo not given)
> 69.1 µg/mL
Cc1cc(C(=O)N2CCN(c3ccc([N+](=O)[O-])cc3)CC2)co1
> 47.3 µg/mL
Cc1ccc(C#CC[N+]2(C)CCCCC2)cc1.[Br-]
> 46.2 µg/mL

// for each compound below, give its solubility kinetic
1. CN1[C@@H](CC(=O)c2ccccc2)CCC[C@H]1C[C@H](O)c1ccccc1.Cl
2. CC1CCCCC1NC(=O)c1ccc(-n2cncn2)cc1 (stereo not given)

1. > 56.1 µg/mL
2. > 42.7 µg/mL

---

Could you please report measured solubility kinetic for the items listed next?
Test Parameters: buffer; pH 7.4; 200.0 µM

Completed entries (count: 6):
CCC(=O)NCCc1nc2cc(NC(=O)Nc3ccccc3)ccc2n1C
> 54.8 µg/mL
CC(C)(C)c1ccc(OCC(O)CN2CCCC2)cc1.Cl (centres undefined)
> 47.1 µg/mL
C/C=C/C(=O)OCC(=O)Nc1cccc(F)c1
> 35.6 µg/mL
Cc1ccc(S(=O)(=O)N(C)C)cc1NC(=O)COC(=O)COc1ccc2c(C)cc(=O)oc2c1
> 73.3 µg/mL
CCOc1ccccc1CNC(=O)CNC(=O)c1cccs1
> 47.8 µg/mL
O=C(O)CCC(NC(=S)Nc1ccccc1)C(=O)O (centres undefined)
> 42.3 µg/mL

Consider the following items and state reported solubility kinetic for each.
1. Cc1cc(C(=O)N2CCN(Cc3ccccc3)CC2)ccc1[N+](=O)[O-]
2. Cn1c(O)c(C=NCCN2CCOCC2)c(=O)[nH]c1=S
3. CCOC(=O)c1cc(COc2cc(Cl)cc(Cl)c2)on1

["> 50.9 µg/mL", "> 44.8 µg/mL", "< 0.7 µg/mL"]

The values you see were collected from PubChem BioAssay AID1996.
